Test system: SK-OV-3 ovarian
Assay: NCI tumour cell line growth inhibition, 48 h
Parameter: TGI. Scope: all listed entries.

Some entries whose results are on file:
compound	TGI
CN1CCc2c(sc3ncn(Nc4ccc(Cl)cc4)c(=N)c23)C1	> 100 µM
C=C1C(=O)O[C@H]2[C@H]1CC/C(COC(=O)CCCc1c[nH]c3ccccc13)=C\CC[C@@]1(C)O[C@@H]21	32.8 µM
CO/N=C(\C([O-])=N\[n+]1cnn(CC(=O)OC(C)(C)C)c1)c1csc(NC(c2ccccc2)(c2ccccc2)c2ccccc2)n1	> 10 µM
CC1CC(C)C2OC2(C)C[C@H](C)C(=O)NC(C)C(=O)N(C)[C@H](Cc2c(Br)[nH]c3ccccc23)C(=O)N[C@@H](c2ccc(O)cc2)CC(=O)O1 (stereo not given in full)	3.04 µM
C1CN(P2(N3CC3)=NP(N3CC3)(N3CC3)=NP(N3CC3)(N3CC3)=N2)CCO1 (stereo not given)	> 100 µM

What value of TGI has been recorded for this entry: O=S(=O)(N=NC=C1c2ccccc2N(O)c2ccccc21)c1ccc(Cl)cc1 > 100 µM

Consider the compound COC(=O)[C@@H](C)[C@H]1CC[C@@](C)(CCC2=C(C)CC3C=C(C)CCC3C2(C)C)OO1 (stereo not given in full) and give its measured TGI. 3.87 µM

For N/C(=N\Nc1ccc(Cl)cc1)c1cnccn1 , what is its reported TGI? > 100 µM

What value of TGI has been reported for the following compound? Clc1ccc2nc(CI)c(CI)nc2c1 > 58 µM

Please look up its TGI: CN(C)CCCC1(c2ccc(F)cc2)OCc2cc(-c3cc4ccccc4s3)ccc21 (stereo not given) 3.04 µM

Recorded TGI of Cc1cc2c(cc1C)C(=O)C1(C2)Cc2cc3c(cc2C1=O)CCC3 (stereo not given) , please. > 100 µM

I have this compound here, Cc1ccc2c(c1)C(=O)c1c-2c(OCCCN(C)C)nc2ccccc12 , and I need its recorded TGI. 17.4 µM

Quick one: TGI of CCOC(=O)C12C(C(=O)OC)=C(C)N(NC(=O)Nc3ccccc3)C1(N)N(NC(=O)Nc1ccccc1)C(C)=C2C(=O)OC (stereo not given) ? > 100 µM

So what's the measured TGI for this one? Cc1ccc(N=Nc2c(O)ccc3cc(S(=O)(=O)O)ccc23)cc1 > 100 µM
